observation.type: IC50 (µM)
Please reply with the bare figure in µM and do not write the unit itself.

## Input Form field: IC50 recorded for `Nc1nc(N)c2[nH]cnc2n1` with 3-phosphoinositide-dependent protein kinase 1 (Homo sapiens, UniProt O15530) (enter value)
## Output 50.8

## Input Please tell me: IC50 of `Nc1cc2ccccc2cn1` , system 3-phosphoinositide-dependent protein kinase 1 (Homo sapiens, UniProt O15530)?
## Output 376

## Input IC50 of `NC(=O)c1cccc2cc[nH]c12` on 3-phosphoinositide-dependent protein kinase 1 (Homo sapiens, UniProt O15530)?
## Output 97.5

## Input Value wanted: IC50 (3-phosphoinositide-dependent protein kinase 1 (Homo sapiens, UniProt O15530)) of entry `NC(=O)c1[nH]ncc1N`
## Output 200

## Input Please tell me: IC50 of `c1cc(-c2cc[nH]n2)ccn1` , system 3-phosphoinositide-dependent protein kinase 1 (Homo sapiens, UniProt O15530)?
## Output 326

## Input Enter reported IC50 observed with 3-phosphoinositide-dependent protein kinase 1 (Homo sapiens, UniProt O15530) for `Nc1cc(-c2ccco2)n[nH]1`
Sequence (O15530 whole entry): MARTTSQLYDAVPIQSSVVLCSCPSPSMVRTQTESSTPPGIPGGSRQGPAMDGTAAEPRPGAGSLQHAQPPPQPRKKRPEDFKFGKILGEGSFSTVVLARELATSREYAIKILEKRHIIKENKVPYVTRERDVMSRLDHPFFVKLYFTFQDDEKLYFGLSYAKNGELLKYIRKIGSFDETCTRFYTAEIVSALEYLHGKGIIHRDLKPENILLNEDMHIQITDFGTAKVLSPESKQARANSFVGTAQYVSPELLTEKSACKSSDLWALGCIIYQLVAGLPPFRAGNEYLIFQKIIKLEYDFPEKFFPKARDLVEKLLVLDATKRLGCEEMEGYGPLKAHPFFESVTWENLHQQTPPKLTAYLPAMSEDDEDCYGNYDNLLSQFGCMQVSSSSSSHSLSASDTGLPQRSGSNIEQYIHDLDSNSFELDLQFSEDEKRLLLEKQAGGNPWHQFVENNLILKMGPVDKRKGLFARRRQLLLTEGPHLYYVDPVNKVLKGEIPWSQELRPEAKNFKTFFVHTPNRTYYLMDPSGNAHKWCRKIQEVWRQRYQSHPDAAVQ
## Output 313

## Input Write down the reported IC50 of `c1ccc(-c2nccs2)cc1` , test system: 3-phosphoinositide-dependent protein kinase 1 (Homo sapiens, UniProt O15530).
## Output 95.1

* * *

molecular target: UniProt:O15530; assay: Inhibition of human PDK1 preincubated with substrate biotinylated PDKtide for 30 mins measured after 4 hrs by Scintillation proximity assay
For each record, write down the corresponding IC50.
Express the result in µM but write the number alone.

## Input Bench note: what IC50 did `Nc1cc(-c2ccc3c(N)n[nH]c3c2)ccn1` show?
## Output 7.28

## Input Entry `Nc1nccc(-c2ccc3c(N)n[nH]c3c2)n1` has what IC50?
## Output 0.37

* * *

biological target: Mitogen-activated protein kinase 8 (Homo sapiens, UniProt P45983); assay: Inhibition of JNK1
Sequence (P45983 whole entry): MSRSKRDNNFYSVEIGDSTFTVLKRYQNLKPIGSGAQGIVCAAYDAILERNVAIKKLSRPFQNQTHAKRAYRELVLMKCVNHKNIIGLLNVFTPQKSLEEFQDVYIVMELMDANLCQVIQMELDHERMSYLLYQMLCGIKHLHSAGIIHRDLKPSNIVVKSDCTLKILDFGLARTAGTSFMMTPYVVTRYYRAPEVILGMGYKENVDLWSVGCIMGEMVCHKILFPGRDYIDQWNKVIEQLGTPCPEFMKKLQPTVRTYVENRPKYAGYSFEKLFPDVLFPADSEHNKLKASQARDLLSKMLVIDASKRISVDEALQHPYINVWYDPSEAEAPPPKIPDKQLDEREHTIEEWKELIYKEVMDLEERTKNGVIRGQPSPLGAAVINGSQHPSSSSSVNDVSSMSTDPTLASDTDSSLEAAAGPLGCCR
observation.type: IC50

## Input Which IC50 is reported for this molecule? `Nc1nccc(-c2ccc3c(N)n[nH]c3c2)n1`
## Output > 10 µM

* * *

molecular target: Insulin receptor (Homo sapiens)
Sequence (P06213 28-758 limits assumed): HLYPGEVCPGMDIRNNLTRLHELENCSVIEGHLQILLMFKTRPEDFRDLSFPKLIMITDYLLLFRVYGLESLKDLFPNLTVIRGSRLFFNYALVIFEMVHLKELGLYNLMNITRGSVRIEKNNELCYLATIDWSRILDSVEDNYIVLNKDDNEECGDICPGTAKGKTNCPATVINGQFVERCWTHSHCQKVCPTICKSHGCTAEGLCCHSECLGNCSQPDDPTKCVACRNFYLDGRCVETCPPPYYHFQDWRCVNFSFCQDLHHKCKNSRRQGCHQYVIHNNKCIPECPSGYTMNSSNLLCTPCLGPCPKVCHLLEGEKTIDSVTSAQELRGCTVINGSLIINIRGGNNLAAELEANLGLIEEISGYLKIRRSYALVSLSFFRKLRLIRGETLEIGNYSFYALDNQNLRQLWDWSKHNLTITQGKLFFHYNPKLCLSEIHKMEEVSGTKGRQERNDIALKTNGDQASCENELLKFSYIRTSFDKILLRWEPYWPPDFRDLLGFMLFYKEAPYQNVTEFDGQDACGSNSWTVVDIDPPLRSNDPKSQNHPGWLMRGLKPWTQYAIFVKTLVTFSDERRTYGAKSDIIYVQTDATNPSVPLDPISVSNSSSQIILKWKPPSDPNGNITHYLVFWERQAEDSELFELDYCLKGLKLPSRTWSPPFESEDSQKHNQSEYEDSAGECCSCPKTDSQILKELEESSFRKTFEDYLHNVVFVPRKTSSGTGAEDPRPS
Sequence (P06213 763-1382 limits assumed): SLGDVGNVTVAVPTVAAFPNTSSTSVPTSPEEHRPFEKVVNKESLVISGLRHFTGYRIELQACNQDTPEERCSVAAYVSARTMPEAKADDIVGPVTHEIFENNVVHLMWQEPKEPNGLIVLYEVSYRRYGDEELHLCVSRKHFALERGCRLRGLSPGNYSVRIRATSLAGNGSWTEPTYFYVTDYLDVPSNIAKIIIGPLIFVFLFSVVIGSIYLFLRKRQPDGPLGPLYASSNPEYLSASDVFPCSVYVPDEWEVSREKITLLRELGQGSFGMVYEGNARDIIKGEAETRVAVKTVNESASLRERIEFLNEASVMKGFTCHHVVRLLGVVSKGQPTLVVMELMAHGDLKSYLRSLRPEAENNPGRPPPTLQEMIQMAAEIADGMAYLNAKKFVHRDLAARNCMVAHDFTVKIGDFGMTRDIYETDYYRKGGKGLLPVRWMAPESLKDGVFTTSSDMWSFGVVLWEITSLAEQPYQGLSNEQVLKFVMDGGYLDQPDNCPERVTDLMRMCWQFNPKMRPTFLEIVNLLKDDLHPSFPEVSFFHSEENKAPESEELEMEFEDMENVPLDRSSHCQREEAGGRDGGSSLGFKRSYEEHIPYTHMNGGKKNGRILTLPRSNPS
pIC50: −log10 of the molar value.
observation.type: pIC50

## Input Requested read-out pIC50, target or system Insulin receptor (Homo sapiens), entry `Nc1nccc(-c2ccc3c(N)n[nH]c3c2)n1`
## Output < 5.00

* * *

Target: Mitogen-activated protein kinase kinase kinase 5 (Homo sapiens, UniProt Q99683)
Sequence (Q99683 whole entry): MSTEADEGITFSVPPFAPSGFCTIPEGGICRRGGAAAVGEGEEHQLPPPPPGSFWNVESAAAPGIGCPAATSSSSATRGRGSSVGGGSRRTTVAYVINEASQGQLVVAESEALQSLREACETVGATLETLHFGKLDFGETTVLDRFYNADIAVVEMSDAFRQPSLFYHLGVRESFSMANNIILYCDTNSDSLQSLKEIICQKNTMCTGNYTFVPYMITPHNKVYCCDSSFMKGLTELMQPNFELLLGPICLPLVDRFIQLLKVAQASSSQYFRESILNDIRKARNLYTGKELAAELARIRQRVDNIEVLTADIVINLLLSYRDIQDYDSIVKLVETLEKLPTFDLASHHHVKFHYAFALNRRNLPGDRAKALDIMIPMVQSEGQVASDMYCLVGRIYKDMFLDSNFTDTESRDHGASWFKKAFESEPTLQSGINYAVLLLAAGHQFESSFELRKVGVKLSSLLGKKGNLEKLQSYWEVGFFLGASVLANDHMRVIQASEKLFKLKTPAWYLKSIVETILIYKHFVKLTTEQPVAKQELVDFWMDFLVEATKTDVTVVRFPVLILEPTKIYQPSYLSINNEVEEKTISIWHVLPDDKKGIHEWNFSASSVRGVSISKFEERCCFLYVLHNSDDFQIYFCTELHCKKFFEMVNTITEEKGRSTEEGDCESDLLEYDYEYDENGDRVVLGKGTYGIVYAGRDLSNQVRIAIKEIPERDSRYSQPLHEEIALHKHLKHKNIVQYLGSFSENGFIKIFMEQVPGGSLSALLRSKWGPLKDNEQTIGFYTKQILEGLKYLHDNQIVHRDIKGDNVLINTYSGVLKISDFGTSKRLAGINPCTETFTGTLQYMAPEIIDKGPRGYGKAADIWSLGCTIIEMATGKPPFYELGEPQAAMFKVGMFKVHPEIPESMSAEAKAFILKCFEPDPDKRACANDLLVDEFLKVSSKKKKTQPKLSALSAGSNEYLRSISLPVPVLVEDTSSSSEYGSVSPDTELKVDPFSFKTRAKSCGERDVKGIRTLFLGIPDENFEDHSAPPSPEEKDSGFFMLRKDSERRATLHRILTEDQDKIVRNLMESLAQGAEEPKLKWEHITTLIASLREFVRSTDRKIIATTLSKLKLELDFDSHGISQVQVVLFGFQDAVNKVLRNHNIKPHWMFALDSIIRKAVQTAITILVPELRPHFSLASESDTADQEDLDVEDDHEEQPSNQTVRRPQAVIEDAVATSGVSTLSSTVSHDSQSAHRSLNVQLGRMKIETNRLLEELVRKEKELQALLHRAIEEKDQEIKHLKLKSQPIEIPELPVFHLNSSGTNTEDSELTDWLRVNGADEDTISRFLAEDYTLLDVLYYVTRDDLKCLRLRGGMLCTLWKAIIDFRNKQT
Test: Inhibition of ASK1
observation.type: IC50
Don't forget the unit after the value.

## Input Look at this compound and give its reported IC50. `Nc1nccc(-c2ccc3c(N)n[nH]c3c2)n1`
## Output 5.69 µM

* * *

target: Ribosomal protein S6 kinase beta-1 (Homo sapiens, UniProt P23443)
Sequence (P23443 whole entry): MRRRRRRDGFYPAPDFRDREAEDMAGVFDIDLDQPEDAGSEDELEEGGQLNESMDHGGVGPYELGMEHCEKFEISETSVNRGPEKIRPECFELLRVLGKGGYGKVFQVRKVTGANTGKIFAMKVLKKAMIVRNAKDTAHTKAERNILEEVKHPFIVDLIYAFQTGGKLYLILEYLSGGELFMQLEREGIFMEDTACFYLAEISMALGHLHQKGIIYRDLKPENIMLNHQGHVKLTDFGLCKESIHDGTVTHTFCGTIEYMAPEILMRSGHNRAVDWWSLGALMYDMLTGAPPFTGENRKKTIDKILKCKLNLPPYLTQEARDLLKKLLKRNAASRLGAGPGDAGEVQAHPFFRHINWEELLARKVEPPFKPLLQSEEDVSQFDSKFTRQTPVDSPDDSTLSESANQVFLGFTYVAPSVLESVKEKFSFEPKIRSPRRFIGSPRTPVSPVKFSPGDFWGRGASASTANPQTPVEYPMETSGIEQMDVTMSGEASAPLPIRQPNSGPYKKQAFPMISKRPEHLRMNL
observation.type: pIC50
Keep in mind that pIC50 stands for -log10 of concentration in molar terms.

## Input I'm curious: which pIC50 was measured for `Nc1nccc(-c2ccc3c(N)n[nH]c3c2)n1` tested on Ribosomal protein S6 kinase beta-1 (Homo sapiens, UniProt P23443)?
## Output 5.20
